Readings of log10(LC retention time) for the listed molecules
# experimental_protocol: HILIC, Waters ACQUITY UPLC BEH Amide, 100 × 2.1 mm, 1.7 µm; A: water + 0.125% formic acid + 10 mM ammonium formate; B: 5% water + 95% acetonitrile + 0.125% formic acid + 10 mM ammonium formate; gradient (min/%B) 0/100 2/100 7.7/70 9.5/40 10.25/30 12.75/100 17/100
# recorded_conditions: stereoisomer not certain
log10 LC retention time, min

These solved cases illustrate the format of a correct answer.
{"molecule": "NC(=O)CC(N)C(=O)O (stereo not given) [Asparagine]", "test_result": 0.94}
{"molecule": "CCN(CC)C(=S)SSC(=S)N(CC)CC [Disulfiram]", "test_result": -0.03}

# evaluate next
Incoming: Specify reported log10(LC retention time) for the molecule shown: CC(C)C(C)C=CC(C)C1CCC2C3=CC=C4CC(O)CCC4(C)C3CCC21C (stereo not given) [Ergosterol]
Outgoing: 0.16

====

# experimental_protocol: HILIC, Waters ACQUITY UPLC BEH Amide, 100 × 2.1 mm, 1.7 µm; A: water + 0.125% formic acid + 10 mM ammonium formate; B: 5% water + 95% acetonitrile + 0.125% formic acid + 10 mM ammonium formate; gradient (min/%B) 0/100 2/100 7.7/70 9.5/40 10.25/30 12.75/100 17/100
# recorded_conditions: stereoisomer not certain
Readings of LC retention time for the listed compounds
Reply with just the number (in min).

{"compound": "Cc1c(O)cccc1C(=O)NC(CSc1ccccc1)C(O)CN1CC2CCCCC2CC1C(=O)NC(C)(C)C (stereo unspecified) [Nelfinavir]", "LC retention time (min)": 1.55}
{"compound": "CN(C)C(=N)N=C(N)N [Metformin]", "LC retention time (min)": 5.44}
{"compound": "CC(=O)NCC1CN(c2ccc(N3CCOCC3)c(F)c2)C(=O)O1 (stereo unspecified) [Linezolide]", "LC retention time (min)": 1.15}
{"compound": "O=c1ccc2ccccc2o1 [Coumarin]", "LC retention time (min)": 1.08}
{"compound": "COC(=O)C1=COC(OC2OC(CO)C(O)C(O)C2O)C2C(CO)=CCC12 (stereo unspecified) [Geniposide]", "LC retention time (min)": 4.53}
{"compound": "O=c1cc[nH]c(=O)[nH]1 [Uracil]", "LC retention time (min)": 2.4}

Incoming: Specify reported LC retention time for the compound shown: CC(=O)NCCCC(=O)O [4-Acetamidobutyric acid]
Outgoing: 2.26

Incoming: Specify reported LC retention time for the compound shown: CCCCC1=NC2(CCCC2)C(=O)N1Cc1ccc(-c2ccccc2-c2nn[nH]n2)cc1 [Irbesartan]
Outgoing: 1.16

Incoming: Specify reported LC retention time for the compound shown: CC(Cc1ccccc1)(NC(=O)CN)c1ccccc1 (stereo unspecified) [Remacemide]
Outgoing: 4.41

Incoming: Specify reported LC retention time for the compound shown: CN1C(=O)COc2c(C(=O)NC3CN4CCC3CC4)cc(Cl)cc21 (stereo unspecified) [Azasetron]
Outgoing: 4.66

====

Readings of LC retention time for the listed compounds
# experimental_protocol: HILIC, Waters ACQUITY UPLC BEH Amide, 100 × 2.1 mm, 1.7 µm; A: water + 0.125% formic acid + 10 mM ammonium formate; B: 5% water + 95% acetonitrile + 0.125% formic acid + 10 mM ammonium formate; gradient (min/%B) 0/100 2/100 7.7/70 9.5/40 10.25/30 12.75/100 17/100
# recorded_conditions: stereoisomer not certain
The reply should consist of the numeric value with the unit placed after it.

{"compound": "Nc1ccnc(=O)[nH]1 [Cytosine]", "LC retention time": "5.9 min"}
{"compound": "OCC(O)C(O)CO (stereo unspecified) [Threitol]", "LC retention time": "1.56 min"}
{"compound": "COC1C(O)C(CO)OC1n1cnc2c(=O)[nH]cnc21 (stereo unspecified) [2'-O-Methylinosine]", "LC retention time": "4.06 min"}
{"compound": "Nc1ncnc2c1ncn2C1OC(CSCCC(N)C(=O)O)C(O)C1O (stereo unspecified) [S-Adenosyl-homocysteine]", "LC retention time": "8.85 min"}
{"compound": "NC(=O)N1c2ccccc2CC(=O)c2ccccc21 [Trileptal]", "LC retention time": "1.13 min"}
{"compound": "Cn1cncc1CC(NC(=O)CCN)C(=O)O (stereo unspecified) [Anserine]", "LC retention time": "9.49 min"}
{"compound": "CCCCc1nc(Cl)c(CO)n1Cc1ccc(-c2ccccc2-c2nn[nH]n2)cc1 [Losartan]", "LC retention time": "1.27 min"}
{"compound": "CN1C(=O)CN=C(c2ccccc2F)c2cc([N+](=O)[O-])ccc21 [Flunitrazepam]", "LC retention time": "1.05 min"}

Incoming: Specify reported LC retention time for the compound shown: CN(C)CCc1c[nH]c2ccc(Cn3cncn3)cc12 [Rizatriptan]
Outgoing: 5.11 min

Incoming: Specify reported LC retention time for the compound shown: Cc1ncc(CO)c(C(=O)O)c1O [4-Pyridoxic acid]
Outgoing: 2.66 min

Incoming: Specify reported LC retention time for the compound shown: CC(=O)OCc1ccccc1 [Benzylacetate]
Outgoing: 8.71 min

Incoming: Specify reported LC retention time for the compound shown: Nc1ncnc2c1ncn2C1OC(CO)C(O)C1O (stereo unspecified) [Adenosine]
Outgoing: 4.77 min

Incoming: Specify reported LC retention time for the compound shown: CC(C)CC(NC(=O)C(C)N)C(=O)O (stereo unspecified) [Ala-Leu]
Outgoing: 7.6 min

Incoming: Specify reported LC retention time for the compound shown: Cn1cc(CC(N)C(=O)O)c2ccccc21 (stereo unspecified) [1-Methyltryptophan]
Outgoing: 6.38 min

Incoming: Specify reported LC retention time for the compound shown: Cn1c(=O)ccn(C2OC(CO)C(O)C2O)c1=O (stereo unspecified) [3-Methyluridine]
Outgoing: 1.12 min

Incoming: Specify reported LC retention time for the compound shown: Cn1c(=O)[nH]c2[nH]c(=O)n(C)c2c1=O [1,7-Dimethyluric acid]
Outgoing: 4.09 min

Incoming: Specify reported LC retention time for the compound shown: O=C(O)C=Cc1ccc(O)cc1 [p-Coumaric acid]
Outgoing: 1.38 min

Incoming: Specify reported LC retention time for the compound shown: CNc1nc2c(ncn2C2OC(CO)C(O)C2O)c(=O)[nH]1 (stereo unspecified) [N2-Methylguanosine]
Outgoing: 6.4 min

Incoming: Specify reported LC retention time for the compound shown: COc1cc2ccc(=O)oc2cc1O [Scopoletin]
Outgoing: 1.16 min

Incoming: Specify reported LC retention time for the compound shown: NC(Cc1ccc(O)cc1)C(=O)O (stereo unspecified) [Tyrosine]
Outgoing: 7.61 min

Incoming: Specify reported LC retention time for the compound shown: CC(=O)N1CCCCCC1=O [N-Acetylcaprolactam]
Outgoing: 2.3 min

Incoming: Specify reported LC retention time for the compound shown: COc1cc(C(=O)NC2CCCNC2)cc(OC)c1OC (stereo unspecified) [Troxipide]
Outgoing: 5.04 min

Incoming: Specify reported LC retention time for the compound shown: O=C(CCCN1CCC(O)(c2ccc(Cl)cc2)CC1)c1ccc(F)cc1 [Haloperidol]
Outgoing: 2.31 min

Incoming: Specify reported LC retention time for the compound shown: O=c1[nH]c(=O)c2ncn(C3OC(CO)C(O)C3O)c2[nH]1 (stereo unspecified) [Xanthosine]
Outgoing: 7.3 min

Source of measurements: the RepoRT retention time repository
